# growth at 10 µM per entry
run_description: Growth inhibition of human HCC2998 cells assessed as cell growth at 10 uM incubated for 48 hrs by sulforhodamine B assay relative to control
Format: functional
condition: HCC 2998, 48 h, read-out: Activity
readout: growth at 10 µM (%)

• CC(C)(C)OC[C@@H]1NC(c2ccc(Br)cc2)=Nc2nc3ccccn3c2C1=O = 90.9
• C[C@@H]1NC(c2ccc(Cl)cc2Cl)=Nc2nc3ccccn3c2C1=O = 75.4
• C[C@@H]1NC(c2ccc(Cl)cc2)=Nc2nc3ccccn3c2C1=O = 91.6
• C[C@@H]1NC(c2ccc3ccccc3c2)=Nc2nc3ccccn3c2C1=O = 77

* * *

run_description: Growth inhibition of human CCRF-CEM cells assessed as cell growth at 10 uM incubated for 48 hrs by sulforhodamine B assay relative to control
Assay type: functional
condition: read-out: Activity
readout: growth at 10 µM (%)

- CC(C)(C)OC[C@@H]1NC(c2ccc(Br)cc2)=Nc2nc3ccccn3c2C1=O: 67.8
- C[C@@H]1NC(c2ccc(Cl)cc2)=Nc2nc3ccccn3c2C1=O: 90.8
- C[C@@H]1NC(c2ccc(Cl)cc2Cl)=Nc2nc3ccccn3c2C1=O: 56.6
- C[C@@H]1NC(c2ccc3ccccc3c2)=Nc2nc3ccccn3c2C1=O: 52.9

* * *

run_description: Growth inhibition of human Caki1 cells assessed as cell growth at 10 uM incubated for 48 hrs by sulforhodamine B assay relative to control
Format: functional
condition: CAKI-1, 48 h, read-out: Activity
In this section we review reported growth at 10 µM values for a set of compounds.
readout: growth at 10 µM

- C[C@@H]1NC(c2ccc3ccccc3c2)=Nc2nc3ccccn3c2C1=O: 38.5%
- C[C@@H]1NC(c2ccc(Cl)cc2Cl)=Nc2nc3ccccn3c2C1=O: 47.2%
- CC(C)(C)OC[C@@H]1NC(c2ccc(Br)cc2)=Nc2nc3ccccn3c2C1=O: 64.2%
- C[C@@H]1NC(c2ccc(Cl)cc2)=Nc2nc3ccccn3c2C1=O: 84.6%

* * *

The reader will find reported growth at 10 µM values listed item by item below.
run_description: Growth inhibition of human Hs 578T cells assessed as cell growth at 10 uM incubated for 48 hrs by sulforhodamine B assay relative to control
Format: functional
condition: read-out: Activity
readout: growth at 10 µM (%)

• C[C@@H]1NC(c2ccc(Cl)cc2Cl)=Nc2nc3ccccn3c2C1=O = 52
• CC(C)(C)OC[C@@H]1NC(c2ccc(Br)cc2)=Nc2nc3ccccn3c2C1=O = 65.2
• C[C@@H]1NC(c2ccc3ccccc3c2)=Nc2nc3ccccn3c2C1=O = 29.3
• C[C@@H]1NC(c2ccc(Cl)cc2)=Nc2nc3ccccn3c2C1=O = 87.1

* * *

run_description: Cytotoxicity against human MDA-MB-435 cells assessed as growth inhibition after 48 hrs by MTT assay
Assay type: functional
condition: MDA-MB-435, 48 h
Listed compounds paired with reported GI50
readout: GI50

• COc1ccc(C2=Nc3nc4ccccn4c3C(=O)[C@H](C)N2)cc1OC = > 10 µM
• C[C@@H]1NC(c2ccc(C#N)cc2)=Nc2nc3ccccn3c2C1=O = > 10 µM
• C[C@@H]1NC(c2ccc(C(F)(F)F)cc2)=Nc2nc3ccccn3c2C1=O = > 10 µM
• C[C@@H]1NC(c2ccc3ccccc3c2)=Nc2nc3ccccn3c2C1=O = 1.4 µM
• CC[C@@H]1NC(c2ccc(Br)cc2)=Nc2nc3ccccn3c2C1=O = 1 µM
• C[C@@H]1NC(c2ccc(I)cc2)=Nc2nc3ccccn3c2C1=O = 1.35 µM
• C[C@@H]1NC(c2ccc(Br)cc2)=Nc2nc3ccccn3c2[C@H]1O = > 10 µM
• C[C@@H]1NC(c2ccccc2Cl)=Nc2nc3ccccn3c2C1=O = 6.5 µM
• O=C1c2c(nc3ccccn23)N=C(c2ccc(Br)cc2)N[C@H]1CO = 0.95 to 1 µM
• C[C@@H]1NC(c2cccc3ccccc23)=Nc2nc3ccccn3c2C1=O = 1.4 µM
• C[C@@H]1NC(c2ccc(F)cc2)=Nc2nc3ccccn3c2C1=O = > 10 µM
• CCOC(=O)c1ccc(C2=Nc3nc4ccccn4c3C(=O)[C@H](C)N2)cc1 = > 10 µM
• CC(=O)Nc1ccc(C2=Nc3nc4ccccn4c3C(=O)[C@H](C)N2)cc1 = 10 to 100 µM
• C[C@H]1C(=O)c2c(nc3ccccn23)N=C(c2ccc(Br)cc2)N1C = > 10 µM
• C[C@@H]1NC(c2ccc(Cl)c(C(F)(F)F)c2)=Nc2nc3ccccn3c2C1=O = > 10 µM
• O=C1CNC(c2ccc(Br)cc2)=Nc2nc3ccccn3c21 = > 10 µM
• C[C@@H]1NC(c2cccc(Cl)c2)=Nc2nc3ccccn3c2C1=O = 10 µM
• C[C@@H]1NC(c2cccc(Br)c2)=Nc2nc3ccccn3c2C1=O = > 10 µM
• C[C@@H]1NC(c2ccc(Cl)cc2Cl)=Nc2nc3ccccn3c2C1=O = 1.15 µM

Values were extracted from ChEMBL document CHEMBL3877299.
